Test system: HL-60(TB) leukemia
ASSAY TEXT: NCI tumour cell line growth inhibition, 48 h
TGI: recorded values

As a guide, the following entries are already answered.
COMPOUND: NNC(=O)CSc1nnc(CCCCCCCCc2nnc(SCC(=O)NN)o2)o1
TGI: > 100 µM
--
COMPOUND: CCN(CC)c1ccc(N=C2C=CC(=C(C#N)C#N)c3ccccc32)c(C)c1
TGI: 3.61 µM

Which measured TGI value corresponds to COc1ccc(/C=C/C(=O)/C=C(/C=C/c2ccc(OC)c(OC)c2OC)OB(F)F)c(OC)c1OC ?
3.96 µM

For the compound shown here, COc1cc2c(cc1O)N=C[C@@H]1CCC(O)N1C2=O (mixture of isomers) , give the reported TGI.
11.1 µM

Report TGI for COC(=O)c1c(OC(C)=O)ccc2c1c1cc3ccccc3c(OC(C)=O)c1n2C please.
> 100 µM

----------
Listed here: items and their measured TGI.
Tested on: EKVX NSCLC
ASSAY TEXT: NCI tumour cell line growth inhibition, 48 h

Given the compound Cc1cc(C)nc(NS(=O)(=O)c2ccc(NC(=O)c3ccc4nc5ccccc5c(Nc5ccc(S(=O)(=O)Nc6nc(C)cc(C)n6)cc5)c4c3)cc2)n1 , what is its reported TGI?
> 100 µM

----------
Below, each entry is listed alongside its reported TGI.
Test system: HOP-62 NSCLC
ASSAY TEXT: NCI tumour cell line growth inhibition, 48 h

See these solved cases before continuing.
MOLECULE: COc1ccc(/C=C2\CC3C4CC=C5C[C@@H](O)CC[C@]5(C)C4CC[C@]3(C)C2=O)cc1OC (stereo not given in full)
TGI: > 100 µM

MOLECULE: CCc1cccc(CC)c1NC(=O)C1=CNC(C)=C(C(=O)Nc2c(CC)cccc2CC)C1c1ccc(O)c(OC)c1 (stereo not given)
TGI: 86.8 µM

MOLECULE: O=Cc1ccc2[nH]c(=O)oc2c1
TGI: > 100 µM

Can you share its TGI? I mean this molecule: CCN1CCC(O)(/C=C/c2ccc(Cl)cc2)C(C(=O)/C=C/c2ccc(Cl)cc2)C1 (stereo not given)
> 100 µM

Please look up its TGI: OCC1(CNc2cc(Cl)ncn2)CCC1
> 100 µM

----------
System: HCC-2998 colon
ASSAY TEXT: NCI tumour cell line growth inhibition, 48 h; in the data active = GI50 below about 0.43 µM; inactive = the rest
Your reply should match one of these outcome classes. True = active, False = inactive

Illustrative cases are given below, each with its answer.
COMPOUND STRUCTURE STRING: COn1cc(C(=O)N=C(SC)SC)c2ccccc21
SYSTEM TESTED: HCC-2998 colon
QUALITATIVE LABEL: False
//
COMPOUND STRUCTURE STRING: O=C(Nc1ccc(N2CCNCC2)cn1)c1[nH]ncc1Nc1ncnc2sc3c(c12)CCC3
SYSTEM TESTED: HCC-2998 colon
QUALITATIVE LABEL: False
//
COMPOUND STRUCTURE STRING: COc1ccc2c(c1)C(=O)c1c-2n(CCCNCCO)c(=O)c2cc([N+](=O)[O-])ccc12
SYSTEM TESTED: HCC-2998 colon
QUALITATIVE LABEL: True
//
COMPOUND STRUCTURE STRING: COc1ccc(/C=C/C(=O)/C=C(/C=C/c2ccc(OC)c(OC)c2OC)OB(F)F)c(OC)c1OC
SYSTEM TESTED: HCC-2998 colon
QUALITATIVE LABEL: False
//
COMPOUND STRUCTURE STRING: O=S1(=O)C=C(c2ccccc2)C(c2ccccc2)=C1
SYSTEM TESTED: HCC-2998 colon
QUALITATIVE LABEL: False

Please indicate how the test categorized COc1ccc(-c2c(C#N)cnc(N)c2-c2nc3cc(C)c(C)cc3[nH]2)cc1 .
False

Dear all, I need the recorded test outcome for COC(=O)CCc1c(/C=C2\N=C(c3ccc[nH]3)C=C2OC)[nH]c(C)c1C(=O)OCc1ccccc1 , thank you.
True

Dear all, I need the recorded test outcome for CC(=O)N1c2ccc(-c3ccc(C(=O)O)cc3)cc2[C@H](Nc2ccc(Cl)cc2)C[C@@H]1C , thank you.
True
